# Test system: MDCK-MDR1 cells
# EXPERIMENTAL DETAILS: MDCK-MDR1 permeability
# RECORDED CONDITIONS: percent transported from the optical to basal side
Give MDCK, percent transported for every item shown.
Express it in %; write the number only.

Form field: reported MDCK, percent transported of CC(C)[C@@H](CN1CC[C@@](C)(c2cccc(O)c2)[C@@H](C)C1)NC(=O)[C@H]1Cc2ccc(C(N)=O)cc2CN1 [Compound 13] 17

Repeat with CC(C)[C@@H](CN1CC[C@@](C)(c2cccc(C(N)=O)c2)[C@@H](C)C1)NC(=O)[C@H]1Cc2ccc(C(N)=O)cc2CN1 [Compound 14] 14

Same question, CC(C)[C@@H](CN1CC[C@@](C)(c2cccc(O)c2)[C@@H](C)C1)NC(=O)[C@H]1Cc2ccc(O)cc2CN1 [JDTic, reference compound] this time 11

Can you check CC(C)[C@@H](CN1CC[C@@](C)(c2ccccc2)[C@@H](C)C1)NC(=O)[C@H]1Cc2ccc(O)cc2CN1 [Compound 4] next? 27

* * *

Give plasma stability (% of parent) for every item shown.
# EXPERIMENTAL DETAILS: Plasma stability

I'd like to know its plasma stability (% of parent). The compound in question is CC(C)[C@@H](CN1CC[C@@](C)(c2cccc(O)c2)[C@@H](C)C1)NC(=O)[C@H]1Cc2ccc(C(N)=O)cc2CN1 84.7 % of parent

What would you report for CC(C)[C@@H](CN1CC[C@@](C)(c2cccc(O)c2)[C@@H](C)C1)NC(=O)[C@H]1Cc2ccc(O)cc2CN1 [JDTic, reference compound] ? 97 % of parent

// same read-out, input: CC(C)[C@@H](CN1CC[C@@](C)(c2cccc(C(N)=O)c2)[C@@H](C)C1)NC(=O)[C@H]1Cc2ccc(C(N)=O)cc2CN1 55.3 % of parent

Do the same for CC(C)[C@@H](CN1CC[C@@](C)(c2ccccc2)[C@@H](C)C1)NC(=O)[C@H]1Cc2ccc(O)cc2CN1 please 67.0 % of parent

* * *

Assign solubility at 90 min to each entry below.
# EXPERIMENTAL DETAILS: Kinetic solubility, 96-well plate assay
# Type: physicochemical
# RECORDED CONDITIONS: phosphate buffer, pH 3
Give the value; after it, write the unit.

Query: solubility at 90 min; subject: CC(C)[C@@H](CN1CC[C@@](C)(c2cccc(C(N)=O)c2)[C@@H](C)C1)NC(=O)[C@H]1Cc2ccc(C(N)=O)cc2CN1 100 µM

Entry CC(C)[C@@H](CN1CC[C@@](C)(c2cccc(O)c2)[C@@H](C)C1)NC(=O)[C@H]1Cc2ccc(C(N)=O)cc2CN1 please 77 µM

* * *

# EXPERIMENTAL DETAILS: S9 stability
READOUT TYPE: S9 stability (% of parent)

Would you mind telling me what S9 stability (% of parent) value was observed for CC(C)[C@@H](CN1CC[C@@](C)(c2cccc(O)c2)[C@@H](C)C1)NC(=O)[C@H]1Cc2ccc(C(N)=O)cc2CN1 ? 91.5 % of parent

Also CC(C)[C@@H](CN1CC[C@@](C)(c2cccc(C(N)=O)c2)[C@@H](C)C1)NC(=O)[C@H]1Cc2ccc(C(N)=O)cc2CN1 ? 90.9 % of parent

Query CC(C)[C@@H](CN1CC[C@@](C)(c2cccc(O)c2)[C@@H](C)C1)NC(=O)[C@H]1Cc2ccc(O)cc2CN1 [JDTic, reference compound] next 76 % of parent

What would you report for CC(C)[C@@H](CN1CC[C@@](C)(c2ccccc2)[C@@H](C)C1)NC(=O)[C@H]1Cc2ccc(O)cc2CN1 ? 82.0 % of parent
